Test: ABTS^•+-scavenging activity
Description: A ABTS^•+-scavenging assay measured the ability of pure compounds to decrease the color, reacting directly with the ABTS radical.
Hi there, I'd appreciate the recorded ABTS^•+ Scavenging IC50 for every entry that follows.
Give bare numbers, in µg/mL.

Completed entries (count: 4):
[
  {
    "compound": "O=c1oc2cc(O)ccc2c2oc3cc(O)ccc3c12",
    "measurement.type": "ABTS^•+ Scavenging IC50",
    "recorded.result": 12.24
  },
  {
    "compound": "Cc1c(C)c2c(c(C)c1O)CCC(C)(C(=O)O)O2 (centres unmarked)",
    "measurement.type": "ABTS^•+ Scavenging IC50",
    "recorded.result": 6.16
  },
  {
    "compound": "Cc1c(C)c2c(c(C)c1O)CC[C@@](C)(CCC[C@H](C)CCC[C@H](C)CCCC(C)C)O2",
    "measurement.type": "ABTS^•+ Scavenging IC50",
    "recorded.result": 8.37
  },
  {
    "compound": "COc1ccc(O)c(C(C)(C)C)c1 [BHA, Butylated hydroxyanisole]",
    "measurement.type": "ABTS^•+ Scavenging IC50",
    "recorded.result": 5.07
  }
]

QUERY: Any idea what its ABTS^•+ Scavenging IC50 is? The compound is Cc1cc(C(C)(C)C)c(O)c(C(C)(C)C)c1 [BHT, butylated hydroxytoluene]
RESULT: 6.99
